Values were extracted from ChEMBL document CHEMBL1201862.

Hi there, I'd appreciate the recorded GI50 for every entry that follows.
tested on: MDA-MB-435; assay: NCI tumour cell line growth inhibition, 48 h
The source made the active and inactive calls. Cut-off read from the data, not from the text of the source: active = GI50 up to about 1.1 µM and inactive = higher.

Please review the following examples before continuing.
COMPOUND	RECORDED_METRIC	RESULT
CCOC(=O)c1c(N)n(-c2ccccc2)c(=O)n(-c2ccccc2)c1=O	GI50	> 100 µM (inactive)
COc1cc(/C=N/c2ccc(S(N)(=O)=O)cc2)cc(OC)c1	GI50	14 µM (inactive)
COc1ccc(C(CC2(c3ccc(OC)cc3)SCCCS2)NC(C)=O)cc1 (stereo unspecified)	GI50	40.7 µM (inactive)
Nc1ccc(C2SCC(=O)N2NS(=O)(=O)c2cccc(C(=O)O)c2)cc1 (stereo unspecified)	GI50	> 100 µM (inactive)
CC1=CCC([C@@](C)(O)CCCC(C)(C)N=C=S)CC1 (stereo partly specified)	GI50	17.1 µM (inactive)

From here, focus on the item given below.
Req: Consider the compound NC(=O)SCCC(N)C(=O)O (stereo unspecified) and give its measured GI50.
Resp: > 100 µM (inactive)
